# Assay Target: UniProtKB P29275
# Sequence (P29275 whole entry): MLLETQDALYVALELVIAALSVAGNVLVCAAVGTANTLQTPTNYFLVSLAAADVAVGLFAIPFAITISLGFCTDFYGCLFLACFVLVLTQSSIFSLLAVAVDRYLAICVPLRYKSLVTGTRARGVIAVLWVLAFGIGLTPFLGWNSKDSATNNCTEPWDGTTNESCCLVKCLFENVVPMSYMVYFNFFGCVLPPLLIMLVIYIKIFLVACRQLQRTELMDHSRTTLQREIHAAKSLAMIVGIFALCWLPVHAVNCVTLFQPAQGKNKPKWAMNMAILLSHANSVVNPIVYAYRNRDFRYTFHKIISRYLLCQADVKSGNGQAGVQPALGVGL
# Test Summary: Displacement of [3H]DPCPX from human Adenosine A2B receptor expressed in HEK293 cells; range 244-373
# Assay type: cell-based
Measured Metric: Ki (nM)
Entry rule: numbers only, all in nM.

Lab request: please report Ki under test system UniProtKB P29275 for Cc1ccc(NC(=O)Nc2nc3nn(C)cc3c3nc(-c4ccco4)nn23)cc1
302
